These entries and their values trace back to patent US20190308988A1.

# ASSAY_COMMENT: Solubility determination in oil (Table 10)
# PARTICULARS: 40 °C, water, thermodynamic from solid, Equilibrium solubility: Water, Heating Temp. 40 °C, Obs. Temp. 40 °C
REPORTED_METRIC: solubility thermodynamic (µg/mL)
The answer is to be given in µg/mL; state only the numeric part.

compound="C=C1CC[C@@]2(O)C3Cc4ccc(OC(=O)OCCCCCCCCCCCCCCCC)c5c4[C@@]2(CCN3CC2CC2)[C@H]1O5 [Compound 19]" reported_metric="solubility thermodynamic" readout_number=46.8
compound="C=C1CC[C@@]2(O)C3Cc4ccc(OC(=O)CC(C)(C)C)c5c4[C@@]2(CCN3CC2CC2)[C@H]1O5 [Compound 38]" reported_metric="solubility thermodynamic" readout_number=617

With those in mind, consider the next compound.
Which value of solubility thermodynamic has been reported for O=C(CCC1CCCC1)Oc1ccc2c3c1O[C@H]1C(=O)CC[C@@]4(O)C(C2)N(CC2CC2)CC[C@]314 [Compound 43] in the records?
50

---

# ASSAY_COMMENT: Dog pharmacokinetic studies, deep intramuscular administration
# Type: in vivo, Beagle dogs
# PARTICULARS: Beagle, dog, plasma, im, 30 mg/kg, IM 30 mg/kg, Sesame oil + 1% Benzyl Alcohol; read-out: Half-life t1/2 (hour) prodrug (converted)
REPORTED_METRIC: half-life

mol_smiles=C=C1CC[C@@]2(O)C3Cc4ccc(OC(=O)OCCCCCCCCCCCC)c5c4[C@@]2(CCN3CC2CC2)[C@H]1O5 result="95 h"

Now for the compound whose half-life we want.
I am curious: what half-life value has been reported for `C=C1CC[C@@]2(O)C3Cc4ccc(OC(=O)CCCCCCC/C=C/CCCCCCCC)c5c4[C@@]2(CCN3CC2CC2)[C@H]1O5` ?
134 h

---

# ASSAY_COMMENT: Solubility determination in oil (Table 10)
# PARTICULARS: 40 °C, oil or lipid, thermodynamic from solid, Approximate Solubility in Excipient: Sesame oil, Heating Temp. 60 °C, Obs. Temp. 40 °C
REPORTED_METRIC: solubility

Solved cases below.
mol_smiles=C=C1CC[C@@]2(O)C3Cc4ccc(OC(=O)CCCCCCCCCCCCCCCCCCC)c5c4[C@@]2(CCN3CC2CC2)[C@H]1O5 result="202 to 404 mg/mL"
mol_smiles=CCCCCCCCCCCCCCCC(=O)Oc1ccc2c3c1O[C@H]1C(=O)CC[C@@]4(O)C(C2)N(CC2CC2)CC[C@]314 result="> 395 mg/mL"
mol_smiles=O=C(CCC1CCCC1)Oc1ccc2c3c1O[C@H]1C(=O)CC[C@@]4(O)C(C2)N(CC2CC2)CC[C@]314 result="133 to 199 mg/mL"

Quick one: solubility of `CCCCCCCCCCCCCCCCOC(=O)Oc1ccc2c3c1O[C@H]1C(=O)CC[C@@]4(O)C(C2)N(CC2CC2)CC[C@]314` ?
101 to 134 mg/mL

solubility lookup needed for `CC(C)(C)CC(=O)Oc1ccc2c3c1O[C@H]1C(=O)CC[C@@]4(O)C(C2)N(CC2CC2)CC[C@]314` , thanks.
< 25.8 mg/mL

Record request: solubility value, item `CCCCCCCC/C=C\CCCCCCCCCCCC(=O)Oc1ccc2c3c1O[C@H]1C(=O)CC[C@@]4(O)C(C2)N(CC2CC2)CC[C@]314`
> 402 mg/mL

---

# ASSAY_COMMENT: Rat pharmacokinetic studies, intramuscular administration
# Format: in vivo, male Sprague Dawley Rats
# PARTICULARS: male, Sprague Dawley, rat, plasma, im; 17 mg/kg, Sesame oil + 1% Benzyl Alcohol; read-out: Half-life t1/2 (hour) prodrug (converted)
REPORTED_METRIC: half-life (h)
Just the number in h, nothing appended.

Quick check: half-life of C=C1CC[C@@]2(O)C3Cc4ccc(OC(=O)CCCCCCCCCCC)c5c4[C@@]2(CCN3CC2CC2)[C@H]1O5 [Compound 59, reference compound] ?
15.2

---

# ASSAY_COMMENT: Solubility determination in oil (Table 10)
# PARTICULARS: 40 °C, oil or lipid, thermodynamic from solid, Approximate Solubility in Excipient: Castor oil, Heating Temp. 40 °C, Obs. Temp. 40 °C
# Procedure: A known amount of test substance (˜40 mg) was weighed into the vial, 100 μL of oil was added and heated to 60° C. and then system was slurried to reach equilibrium. […] Extra oil was added into the vial once compound precipitated out and then the system was re-equilibrated at 1000 rpm at room temperature (25° C.). Final concentration was determined by HPLC method as described below in Table 6a and 6b.
The compounds listed here are annotated with their solubility.

compound="C=C1CC[C@@]2(O)C3Cc4ccc(OC(=O)CC(C)(C)C)c5c4[C@@]2(CCN3CC2CC2)[C@H]1O5 [Compound 38]" result="> 248 mg/mL"
compound="C=C1CC[C@@]2(O)C3Cc4ccc(OC(=O)CCCCCCC/C=C\\C/C=C\\CCCCC)c5c4[C@@]2(CCN3CC2CC2)[C@H]1O5 [Compound 37]" result="> 226 mg/mL"
compound="C=C1CC[C@@]2(O)C3Cc4ccc(OC(=O)CCC5CCCC5)c5c4[C@@]2(CCN3CC2CC2)[C@H]1O5 [Compound 39]" result="> 218 mg/mL"

Shift focus to the following entry.
Could you share which solubility value was measured for C=C1CC[C@@]2(O)C3Cc4ccc(OC(=O)CCCCCCC/C=C\CCCCCCCC)c5c4[C@@]2(CCN3CC2CC2)[C@H]1O5 [Compound 36] ?
> 217 mg/mL

---

# ASSAY_COMMENT: Dog pharmacokinetic studies, deep intramuscular administration
# Format: in vivo, Beagle dogs
# PARTICULARS: Beagle, dog, plasma, im, 48 mg/kg, IM 48 mg/kg (shallow), Sesame oil + 1% Benzyl Alcohol; read-out: Half-life t1/2 (hour) prodrug (converted)
REPORTED_METRIC: half-life (h)
Field format: number, assumed h, no unit text.

# get_value(readout='half-life', item= C=C1CC[C@@]2(O)C3Cc4ccc(OC(=O)OCCCCCCCCCCCC)c5c4[C@@]2(CCN3CC2CC2)[C@H]1O5 [Compound 6] )
135

---

# ASSAY_COMMENT: Rat pharmacokinetic studies, intramuscular administration
# Type: in vivo, male Sprague Dawley Rats
# PARTICULARS: male, Sprague Dawley, rat, plasma, intramuscular, 0.8 mg/kg
Structures can show the parent of a compound that is named as a salt.
REPORTED_METRIC: concentration at 8 h (ng/mL)
Quick reminder: number only, in ng/mL, skip the unit.

May I ask what concentration at 8 h has been recorded for C=C1CC[C@@]2(O)[C@H]3Cc4ccc(O)c5c4[C@@]2(CCN3CC2CC2)[C@H]1O5 [nalmefene HCL, reference compound] ?
0.0178

---

# ASSAY_COMMENT: Rat pharmacokinetic studies, intramuscular administration
# Assay type: in vivo, male Sprague Dawley Rats
# PARTICULARS: male, Sprague Dawley, rat, plasma, im; 80 mg/kg, Sesame oil + 1% Benzyl Alcohol; read-out: Half-life t1/2 (hour) prodrug (converted)
REPORTED_METRIC: half-life (h)
Express your answer in h, writing the number without its unit.

mol_smiles=C=C1CC[C@@]2(O)C3Cc4ccc(OC(=O)CCCCCCC/C=C/CCCCCCCC)c5c4[C@@]2(CCN3CC2CC2)[C@H]1O5 reported_metric=half-life readout_number=1550

With those in mind, consider the next compound.
Entry `C=C1CC[C@@]2(O)C3Cc4ccc(OC(=O)OCCCCCCCCCCCC)c5c4[C@@]2(CCN3CC2CC2)[C@H]1O5` has what half-life?
340

---

# ASSAY_COMMENT: Solubility determination in oil (Table 10)
# PARTICULARS: 40 °C, oil or lipid, thermodynamic from solid, Approximate Solubility in Excipient: Sesame oil, Heating Temp. 40 °C, Obs. Temp. 40 °C
Recorded measurements of solubility, one per entry

Guide cases for solubility, answers given:
mol_smiles=C=C1CC[C@@]2(O)C3Cc4ccc(OC(=O)OCCCCCCCC)c5c4[C@@]2(CCN3CC2CC2)[C@H]1O5 result="> 416 mg/mL"
mol_smiles=C=C1CC[C@@]2(O)C3Cc4ccc(OC(=O)CCCCCCC/C=C/CCCCCCCC)c5c4[C@@]2(CCN3CC2CC2)[C@H]1O5 result="< 52 mg/mL"
mol_smiles=C=C1CC[C@@]2(O)C3Cc4ccc(OC(=O)CCCCCCC/C=C\C/C=C\CCCCC)c5c4[C@@]2(CCN3CC2CC2)[C@H]1O5 result="> 408 mg/mL"
mol_smiles=C=C1CC[C@@]2(O)C3Cc4ccc(OC(=O)CCCCCCCCCCC/C=C\CCCCCCCC)c5c4[C@@]2(CCN3CC2CC2)[C@H]1O5 result="> 406 mg/mL"
mol_smiles=C=C1CC[C@@]2(O)C3Cc4ccc(OC(=O)CCCCCCC/C=C\C/C=C\C/C=C\CC)c5c4[C@@]2(CCN3CC2CC2)[C@H]1O5 result="> 406 mg/mL"

Which solubility value belongs to `C=C1CC[C@@]2(O)C3Cc4ccc(OC(=O)CCCCCCCCCCCCCCCCC)c5c4[C@@]2(CCN3CC2CC2)[C@H]1O5` ?
70 to 95 mg/mL

For `C=C1CC[C@@]2(O)C3Cc4ccc(OC(=O)CC(C)(C)C)c5c4[C@@]2(CCN3CC2CC2)[C@H]1O5` , what is its reported solubility?
230 to 411 mg/mL

Which solubility is listed for `C=C1CC[C@@]2(O)C3Cc4ccc(OC(=O)CCCCCCCCCCCCCCCCCCC)c5c4[C@@]2(CCN3CC2CC2)[C@H]1O5` ?
68 to 81 mg/mL

Record request: solubility value, item `CC(C)(C)CC(=O)Oc1ccc2c3c1O[C@H]1C(=O)CC[C@@]4(O)C(C2)N(CC2CC2)CC[C@]314`
< 52 mg/mL

Dear colleague, I am looking for the recorded solubility of the following compound: `C=C1CC[C@@]2(O)C3Cc4ccc(OC(=O)CCCCCCC/C=C\CCCCCCCC)c5c4[C@@]2(CCN3CC2CC2)[C@H]1O5`
> 412 mg/mL

Requested read-out: solubility. Entry: `C=C1CC[C@@]2(O)C3Cc4ccc(OC(=O)OCCCCCCCCCCCC)c5c4[C@@]2(CCN3CC2CC2)[C@H]1O5`
> 403 mg/mL

Would you kindly share the measured solubility for `C=C1CC[C@@]2(O)C3Cc4ccc(OC(=O)CCC5CCCC5)c5c4[C@@]2(CCN3CC2CC2)[C@H]1O5` ?
> 400 mg/mL
